Provenance of the data: the EternaBench riboswitch data

# Test system: MS2 coat protein
# assayText: apparent Kd, MS2 coat protein; higher = weaker binding; RNA-MaP array; FMN 200 µM where present
# experimentalSetup: ligand present: flavin mononucleotide; designed as: OFF switch for flavin mononucleotide
observedProperty: apparent Kd (nM)
Write the answer as a number in nM, unit excluded.

sequenceData: CGGUGACUGGUGAGGAUAUCGUGUUCGAAAGAACGUGAGAAGGCACAUGAGGAUCACCCAUGUGAUCCUCAUCG
assayTarget: MS2 coat protein
outputUnit: nM
apparent Kd: 163
//
sequenceData: UUGAUGUCAUCAGGAUAUAGUAUUUAAGACAUAUCUUCUUUCUUACAUGAGGAUCACCCAUGUCGCUAGAAGGGAUGAAUGAUU
assayTarget: MS2 coat protein
outputUnit: nM
apparent Kd: 15.4
//
sequenceData: UAGGUACAUGAGGAUCACCCAUGUGAGGAUAUAGAUGAAGAUUGCGAGAGGGAGAGGACUAGAAGGCACAGUGG
assayTarget: MS2 coat protein
outputUnit: nM
apparent Kd: 36.8

Please look at the following sequence next.
Short answer on MS2 coat protein for CUCAUGUGAGGAUAUGUGAUCUGCCUUCUAUGUAGAUGAUCACAGAAGGCACAUGAGGAUCACCCAUGUAGAUC , apparent Kd: 23.4
